Target: Sodium-dependent dopamine transporter (Homo sapiens)
Sequence (Q01959 whole entry): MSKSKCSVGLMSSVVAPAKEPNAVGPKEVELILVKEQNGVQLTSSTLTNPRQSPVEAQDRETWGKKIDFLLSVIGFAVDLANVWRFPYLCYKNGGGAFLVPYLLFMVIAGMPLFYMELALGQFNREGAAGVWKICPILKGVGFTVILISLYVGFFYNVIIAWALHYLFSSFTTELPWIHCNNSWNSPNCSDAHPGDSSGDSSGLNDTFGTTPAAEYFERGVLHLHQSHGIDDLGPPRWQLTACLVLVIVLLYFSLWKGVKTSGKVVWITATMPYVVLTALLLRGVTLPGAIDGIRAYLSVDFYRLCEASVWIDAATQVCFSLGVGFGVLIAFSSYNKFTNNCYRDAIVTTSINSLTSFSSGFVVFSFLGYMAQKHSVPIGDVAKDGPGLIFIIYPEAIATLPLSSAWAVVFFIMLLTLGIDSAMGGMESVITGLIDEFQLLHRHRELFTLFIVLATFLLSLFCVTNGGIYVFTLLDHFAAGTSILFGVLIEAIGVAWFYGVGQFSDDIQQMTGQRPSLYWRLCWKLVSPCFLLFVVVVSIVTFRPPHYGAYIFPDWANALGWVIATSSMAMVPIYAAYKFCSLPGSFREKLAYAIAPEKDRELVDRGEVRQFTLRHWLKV
Conditions: HEK293, at 0.1 µM
Use rule met when the recorded inhibition is no lower than 30%; use rule not met when it is lower.

• Clc1ccc(C(OCc2ccccc2)C2CNC2)cc1Cl (stereo unspecified) = rule not met
• Fc1cc(C(Oc2ccccc2F)C2CNC2)ccc1Cl (stereo unspecified) = rule not met
• CNCCC(Oc1ccccc1OC)c1ccccc1 (stereo unspecified) = rule not met
• CCOC(c1ccccc1)C1CNC1 (stereo unspecified) = rule not met
• Clc1ccc(C(Oc2ccccc2)C2CNC2)cc1 (stereo unspecified) = rule met
• Clc1ccc(C(OCc2ccccc2)C2CNC2)cc1 (stereo unspecified) = rule not met
• COC(c1ccccc1)C1CNC1 (stereo unspecified) = rule not met
• c1ccc(OC(c2ccccc2)C2CNC2)cc1 (stereo unspecified) = rule not met
• Clc1ccc(C(Oc2ccccc2)C2CNC2)cc1Cl (stereo unspecified) = rule met
• c1ccc(COC(c2ccccc2)C2CNC2)cc1 (stereo unspecified) = rule not met
• CCOC(c1ccc(Cl)cc1)C1CNC1 (stereo unspecified) = rule not met
• CCCOC(c1ccc(Cl)c(Cl)c1)C1CNC1 (stereo unspecified) = rule met
• OC(c1ccccc1)C1CNC1 (stereo unspecified) = rule not met
• COC(c1ccc(Cl)c(Cl)c1)C1CNC1 (stereo unspecified) = rule not met
• CCCOC(c1ccc2ccccc2c1)C1CNC1.Cl (stereo unspecified) = rule met
• OC(c1ccc(Cl)cc1)C1CNC1 (stereo unspecified) = rule not met
• COC(c1ccc(Cl)cc1)C1CNC1 (stereo unspecified) = rule not met
• Cl.c1ccc(OC(c2ccc3ccccc3c2)C2CNC2)cc1 (stereo unspecified) = rule met
• Clc1ccc(OC(c2ccc3ccccc3c2)C2CNC2)cc1Cl (stereo unspecified) = rule met

###

Assay: Terminal half life in Sprague-Dawley rat at 1 mg/kg, iv
Format: ADME, organism-based
Set-up: dose 1 mg/kg, route intravenous
Settings: in vivo, read-out: beta t1/2 (converted)
Below: a set of entries, each annotated with reported half-life.
measurement-kind: half-life (h)

* CCCOC(c1ccc2ccccc2c1)C1CNC1.Cl (configuration not stated) | 0.7
* Cl.c1ccc(OC(c2ccc3ccccc3c2)C2CNC2)cc1 (configuration not stated) | 1.4

###

Assay: Apparent oral clearance in Sprague-Dawley rat at 1 mg/kg, iv
Type: ADME, organism-based
Parameters: dose 1 mg/kg
Conditions: in vivo
In this section we review reported CL/F values for a set of compounds.
measurement-kind: CL/F (mL/min/kg)

• Cl.c1ccc(OC(c2ccc3ccccc3c2)C2CNC2)cc1 (configuration not stated) = 107
• CCCOC(c1ccc2ccccc2c1)C1CNC1.Cl (configuration not stated) = 78.3

###

Here, each record is paired with measured CL/F data.
Test: Apparent oral clearance in Sprague-Dawley rat at 2 mg/kg, po
Format: ADME, organism-based
Design: dose 2 mg/kg, route oral
Settings: in vivo
measurement-kind: CL/F

• Cl.c1ccc(OC(c2ccc3ccccc3c2)C2CNC2)cc1 (configuration not stated) = 812 mL/min/kg
• CCCOC(c1ccc2ccccc2c1)C1CNC1.Cl (configuration not stated) = 775 mL/min/kg

###

Assay: Cmax in Sprague-Dawley rat at 2 mg/kg, po
Type: ADME, organism-based
Parameters: dose 2 mg/kg, route oral
Conditions: in vivo
measurement-kind: Cmax (ng/mL)

* CCCOC(c1ccc2ccccc2c1)C1CNC1.Cl (configuration not stated) | 7.3
* Cl.c1ccc(OC(c2ccc3ccccc3c2)C2CNC2)cc1 (configuration not stated) | 5.6
